System: HL-60(TB) leukemia
Assay: NCI-60 one-dose screen, 48 h (100 = growth as untreated, 0 = no growth, -100 = all killed)
Settings: 10 µM unless noted
Compounds without any hit were thinned out: in the full panel of roughly 83,000, 20% have a hit.
experimental readout: growth (%)
The reply should be a number in %, with the unit left off.

[in] Requested field: growth. Item: O=C(Oc1cccc2ccccc12)Oc1cccc2ccccc12
[out] 88.4

Continuing:
[in] What growth value was documented for this compound, Clc1ccccc1CNc1c2ccccc2nc2ccccc12 ?
[out] 13.6

[in] Next compound up: C(=N\Nc1nnn(Cc2ccccc2)n1)/c1ccccc1
[out] 5.57

[in] // same read-out, input: COc1ccc(-c2c(N)n[nH]c2-c2cc(OC)c(OC)c(OC)c2)cc1
[out] 15.3

[in] Same read-out for CC/C=C\C[C@H]1C/C=C2/C(=O)C(Cl)=C[C@@H]2C/C=C\CCCC(=O)O1 ?
[out] -6.91

[in] Now consider c1cc(NCCCCN2CCOCC2)c2ccc3c(ccc4c(NCCN5CCOCC5)ccnc43)c2n1 and answer again.
[out] 47.2

[in] Try this compound too: COc1cc(C2=NN(c3ccccc3)C(c3sc(N(CCCl)CCCl)nc3Cl)C2)cc(OC)c1OC (stereo not drawn)
[out] 96.2

----------
Tested on: SK-MEL-28 melanoma
Assay: NCI-60 one-dose screen, 48 h (100 = growth as untreated, 0 = no growth, -100 = all killed)
Details: 10 µM unless noted
The panel holds about 83,000 compounds, 20% with a hit somewhere; the sample as a whole holds those more often.
Each item that follows carries a reported growth.
Give the quantity in %, number only.

# example entries with known answers
[in] Item under review: C[C@]12CC[C@@H]3C4=C(CC[C@H]3[C@@H]1CC[C@@H]2O)CC(=O)CC4 . Reported growth?
[out] 107

[in] Note, next up: OB([O][Hg][c]1ccccc1)[O][Hg][c]1ccccc1
[out] -83.2

[in] Also check ClCCN(CCCl)C(c1ccccc1)c1ccc(Cl)cc1 (stereo unspecified)
[out] 102

[in] Also check C=CC(O)CN1CC1CC (stereo unspecified)
[out] 105

[in] Entry O=C(CCF)c1ccc(O)cc1 please
[out] 113

New cases:
[in] What value of growth has been reported for the following compound? CC(/C=N/N=C(N)N)=N/N=C(N)N
[out] 96.4

[in] Next compound: NC(=O)SCC(=O)Nc1ccc([As](=O)(O)O)cc1
[out] 101

----------
System: CAKI-1 renal
Test: NCI-60 one-dose screen, 48 h (100 = growth as untreated, 0 = no growth, -100 = all killed)
Settings: 10 µM unless noted
The panel holds about 83,000 compounds, 20% with a hit somewhere; the sample as a whole holds those more often.
Binary label based on growth with cut-off 70%: below gives Met, not below gives Not met.

Answered cases to consult:
[in] Determine whether this molecule shows growth lower than 70% (ties excluded): C=CCN1C(=O)C(CC)(CCC(C)C)C(=O)NC1=S (configuration not stated)
[out] Not met

[in] Please do the same for CC(C)(C)NCC(O)c1ccccc1Cl (configuration not stated) as well.
[out] Met

***
[in] # check: growth < 70% for CCOc1c(Cl)cc(CNC(C)C(O)c2ccccc2)cc1OC (configuration not stated)
[out] Not met

[in] And CCC(C)[C@H]1O[C@]2(C=C[C@@H]1C)C[C@@H]1C[C@@H](C/C=C(\C)[C@@H](OC3C[C@H](OC)C(O[C@H]4C[C@H](OC)[C@@H](O)[C@H](C)O4)[C@H](C)O3)[C@@H](C)/C=C/C=C3\CO[C@@H]4[C@H](O)C(C)=C[C@@H](C(=O)O1)[C@]34O)O2 (some centres not stated) ?
[out] Met

[in] Next: CCC(CC)(c1ccccc1)C(OC(N)=O)c1ccccc1 (configuration not stated)
[out] Met

[in] Then what about the molecule CNC(=O)O/N=C(/C)c1ccc(Cl)cc1 ?
[out] Not met

----------
Below, each entry is listed alongside its reported growth.
Test system: NCI-H460 lung
Assay: NCI-60 one-dose screen, 48 h (100 = growth as untreated, 0 = no growth, -100 = all killed)
Conditions: 10 µM unless noted
The panel holds about 83,000 compounds, 20% with a hit somewhere; the sample as a whole holds those more often.
Expressed in %, but write only the number.

Please review the following examples before continuing.
[in] Sample CCCCN(CCCC)CC(O)c1ccccc1 (stereo not given) — what was its growth?
[out] 110

[in] Likewise for CSc1ccccc1NP1(=O)OCC(C)([N+](=O)[O-])CO1 (stereo not given) ?
[out] 101

[in] Record: C[C@]12CCc3sc(-c4ccc(Cl)cc4)nc3C1=CC[C@@H]1[C@@H]2CC[C@]2(C)C(=O)CC[C@@H]12
[out] 72.5

Further cases:
[in] growth lookup needed for O=C(O)CC(Br)C(=O)CBr (stereo not given) , thanks.
[out] 108

[in] Now consider C[C@]12CC[C@H](OC3OC(O)C(O)C(O)C3O)C=C1CCC1C2CC[C@]2(C)[C@@H](c3ccc(=O)oc3)CC[C@]12O (stereo not given in full) .
[out] -80.1

----------
System: LOX IMVI melanoma
Experiment: NCI-60 one-dose screen, 48 h (100 = growth as untreated, 0 = no growth, -100 = all killed)
Conditions: 10 µM unless noted
This is part of a sample that, as a whole, favours compounds with a hit. Of some 83,000 tested, about 20% had one in any assay.
experimental readout: growth (%)
Field: numeric (%). Do not append units.

Below: 3 molecules and their reported growth.
[in] Item: COc1cc2c(cc1OC)CN(C)C(C)C2 (stereo not given) Test system: LOX IMVI melanoma Read-out: growth Value: ?
[out] 95.1

[in] Can you check CN(Cc1cccnc1)N=O next?
[out] 93.5

[in] O=C(c1cccs1)C1NO[N+]([O-])=C1c1cccs1 (stereo not given) ?
[out] -100

Further cases:
[in] Item: C=CCC1(CC)C(=O)NC(=S)NC1=O Test system: LOX IMVI melanoma Read-out: growth Value: ?
[out] 97.2

[in] Would you mind doing [Br][Pb]([c]1ccccc1)([c]1ccccc1)[c]1ccccc1 as well?
[out] -100

[in] And for COc1ccc(/C=C(/C(=O)N2CCCC2)c2cc(OC)c(OC)c(OC)c2)cc1N ?
[out] 35.3

[in] Same for CCOc1cc(/C=N\Nc2nnc(C)n2N)c(C)cc1N(CCCl)CCCl
[out] 1.98

[in] Next molecule: CO[C@@H]1[C@H](OC(=O)NC(=O)CCl)CC[C@]2(CO2)[C@H]1[C@@]1(C)O[C@@H]1CC=C(C)C
[out] 22.8

[in] Same lookup for c1ccc(-c2ccc3ccccc3[o+]2)cc1 , please.
[out] 82.2

[in] Same again, this time with c1ccc([As]=[As]c2ccccc2)cc1 (stereo not given)
[out] -74.5

[in] What do you get for NS(=O)(=O)c1nc[nH]c1[N+](=O)[O-] ?
[out] 101

[in] Moving on to CC(C)CCC[C@@H](C)[C@H]1CC[C@H]2[C@@H]3CC=C4C[C@@H](OC(=O)Cc5ccc(N(CCCl)CCCl)cc5)CC[C@]4(C)[C@H]3CC[C@]12C
[out] 104

[in] Try this molecule next: CC1(C)CC(=O)CC(C)(C)N1N=O
[out] 97.1

[in] Now consider N#[N+]c1nc2nc(N)[nH]c(=O)c2[nH]1 and answer again.
[out] 98.5

[in] Check CC[C@]12C=CCN3CC[C@@]4(c5ccc(OC)cc5N(C)[C@H]4[C@@](O)(C(=O)OC)[C@@H]1OC(=O)CCCN1CCN(CCCC(=O)O[C@@H]4[C@]5(CC)C=CCN6CC[C@@]7(c8ccc(OC)cc8N(C)[C@H]7[C@@]4(O)C(=O)OC)[C@@H]65)CC1)[C@@H]32 too.
[out] -89.1

----------
Tested on: HL-60(TB) leukemia
Experiment: NCI-60 one-dose screen, 48 h (100 = growth as untreated, 0 = no growth, -100 = all killed)
Conditions: 10 µM unless noted
The panel holds about 83,000 compounds, 20% with a hit somewhere; the sample as a whole holds those more often.
// assign true if growth falls strictly below 60%, else false (ties count as false)

Below are worked cases with known answers.
[in] Does Cc1ccc(/C=C2/C(=O)Nc3cc(Cl)c(-c4csc(N)n4)cc32)cc1 have growth strictly under 60%?
[out] true

[in] Cool, now [O-]/[N+](=C\c1ccccc1)CC1(O)CCCCC1
[out] false

[in] Can you handle CCN1CCN(CC(=O)Nc2nc3ccc(NCc4ccc(C)cc4)cc3s2)CC1 next?
[out] true

New cases:
[in] Does CC(C)C[C@@H](NC(=O)[C@@H](Cc1ccccc1)NC(=O)c1cnccn1)B1O[C@H]2[C@H](O)[C@@H](C(=O)NCCCC[C@@H]3NC(=O)[C@@H](Cc4ccccc4)NC(=O)[C@H](CC(=O)O)NC(=O)CNC(=O)[C@H](CCCN=C(N)N)NC3=O)O[C@@H](CN)[C@H]2O1 have growth strictly under 60%?
[out] true

[in] Entry to check: CC(C)c1ccc(C(=O)Nc2nc3ccc(O)c(CN(C)C)c3s2)cc1
[out] false
